Assay: NCI Yeast Anticancer Drug Screen. Data for the bub3 strain (AID 167)
Details: S. cerevisiae bub3 mutant strain, at 50.0 µM
About 79,000 compounds went through this panel and 15% of them were active in at least one assay; those are over-represented in the sample as a whole. Calls of active or inactive are those of the source. Cut-off read from the data, not from the text of the source: active = growth inhibition above about 70%; inactive = the rest.
Bench note: report the call from active, inactive

Task item: Check the results log: what was the call for Cc1cc(Cl)ccc1Nc1nc2c(s1)C(=O)c1ccccc1C2=O ?
Reply: active

Task item: Please do the same for CC(C)C(=O)OCc1ccc(Cl)cc1 as well.
Reply: inactive

Task item: Please do the same for Clc1cccc(Cl)c1/C=N/Nc1nnc(N/N=C/c2c(Cl)cccc2Cl)c2ccccc12 as well.
Reply: inactive

Task item: Please do the same for O=P(O)(O)c1ccc(Oc2ccccc2)cc1 as well.
Reply: inactive

Task item: Please do the same for OCC1OC(n2cnc3c(Cl)nc(Nc4ccc(Cl)c(Cl)c4)nc32)CC1O (stereo unspecified) as well.
Reply: inactive

Task item: Please do the same for CCCC(=O)NC(C)(C)C as well.
Reply: inactive

---

I'd appreciate it if you could supply growth inhibition values for the items below.
Assay: NCI Yeast Anticancer Drug Screen. Data for the sgs1 mgt1 strain (AID 161);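 note: 0% = growth of cultures given vehicle only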
Details: S. cerevisiae sgs1 mgt1 strain, at 50.0 µM, active compounds read high
This is part of a sample that, as a whole, favours compounds with a hit. Of some 79,000 tested, about 15% had one in any assay.
Give the number; % is assumed, so skip it.

Task item: Tell me the measured growth inhibition of Cn1ncc2c(=S)nc[nH]c21 , please.
Reply: -2.5

Task item: Please do the same for Clc1ccc(Cc2ccc(Br)cc2)cc1 as well.
Reply: 38.5

Task item: Please do the same for O=C(c1nc2ccc(Cl)cc2[nH]c1=O)C(O)c1ccco1 (stereo unspecified) as well.
Reply: -20.2

Task item: Please do the same for O=C1OCc2c1cc1cc3c(cc1c2-c1ccc2c(c1)OCO2)OCO3 as well.
Reply: 3.4

Task item: Please do the same for COc1ccc2c3c([nH]c2c1)C1CC2C(CC(O)C(OC)C2C(=O)O)CN1CC3 (stereo unspecified) as well.
Reply: -1.75

Task item: Please do the same for CCOC(=O)C(CCC#N)(NC(C)=O)C(=O)OCC as well.
Reply: 7.4

---

Assay: NCI Yeast Anticancer Drug Screen. Data for the mec2-1 strain (AID 157)
Conditions: S. cerevisiae mec2-1 strain, at 50.0 µM, active compounds read high
About 79,000 compounds went through this panel and 15% of them were active in at least one assay; those are over-represented in the sample as a whole.
I'd appreciate it if you could supply growth inhibition values for the items below.
Give the number; % is assumed, so skip it.

Task item: Tell me the measured growth inhibition of Brc1ccc(C2CC(c3cccc4ccccc34)=Nc3ccccc3S2)cc1 (stereo not given) , please.
Reply: -2.45

Task item: Please do the same for CCCCC(=CC(C)(C)C)CCCC as well.
Reply: -2.4

Task item: Please do the same for O=C(O)C(CO)(c1ccccc1)c1ccccc1 as well.
Reply: -3.9

Task item: Please do the same for CSc1cc2c(cc1[N+](=O)[O-])C(=O)c1ccccc1-2 as well.
Reply: 5.75

Task item: Please do the same for COc1ccc(N=Cc2ccc(C=Nc3ccc(OC)cc3)cc2)cc1 as well.
Reply: 2.25

Task item: Please do the same for COc1ccc(/C=[N+](\[O-])c2ccccc2)cc1 (tested in a mixture with another compound) as well.
Reply: 8.2

Task item: Please do the same for CCC1(CC)C(=O)N(C(=O)c2cc(OC)c(OC)c(OC)c2)N(C(=O)c2cc(OC)c(OC)c(OC)c2)C1=O as well.
Reply: -0.1

Task item: Please do the same for O=C(/C=C(/Nc1ccccc1)c1ccccc1)c1ccccc1 as well.
Reply: 11.4

Task item: Please do the same for CC(N)C(O)C(C)C(=O)O (stereo not given) as well.
Reply: 9.5

Task item: Please do the same for Cc1ccc(-c2cc(=O)c3cc(C)c(C)c(C(=O)O)c3o2)cc1N as well.
Reply: -3.55

Task item: Please do the same for OCC(O)COCCCCCCCCCCCCCC1C=CCC1 (stereo not given) as well.
Reply: -43.5

Task item: Please do the same for NC(=O)CN(CC(N)=O)CC(N)=O as well.
Reply: -11.7

Task item: Please do the same for CN(C)C=NC1CC(C)(C)NC(C)(C)C1 as well.
Reply: 2.2

Task item: Please do the same for CNC(=O)N(C)C(=O)c1ccncc1C(=O)N(C(=O)NC1CCCCC1)C1CCCCC1 as well.
Reply: 2.2

Task item: Please do the same for CN1CCCC1=Nc1ccc([N+](=O)[O-])cc1 as well.
Reply: -3.55

Task item: Please do the same for c1ccc(COc2ccc(CC3SCCCS3)cc2)cc1 as well.
Reply: -35.8

Task item: Please do the same for CCOC(=O)c1c[nH]c2nc(N)ccc2c1=O as well.
Reply: -0.2

Task item: Please do the same for COc1cccc2c(NCCCCCO[N+](=O)[O-])cc[n+](C)c12 as well.
Reply: -24.4

Task item: Please do the same for Cc1c([N+](=O)[O-])cc(C(C)(C)C)c(OC(=O)C(Cl)(Cl)Cl)c1[N+](=O)[O-] as well.
Reply: 72.5

Task item: Please do the same for CCOC(=O)C1SCCC1(C)O (stereo not given) as well.
Reply: 21.7

Task item: Please do the same for CCOC(=O)C1=C(C)OC(=O)CC1C (stereo not given) as well.
Reply: -15.8

Task item: Please do the same for N#CC1CNC(=S)N=C1c1ccccc1 (stereo not given) as well.
Reply: 17.8

Task item: Please do the same for O=[N+]([O-])c1ccc2[nH]ccc2c1 as well.
Reply: -4.25

Task item: Please do the same for CN(C)C(=S)SCC(=O)c1ccccc1 as well.
Reply: -27.6

Task item: Please do the same for CNC(=O)Sc1ccc([N+](C)(C)C)cc1 as well.
Reply: 0.1

---

Test: NCI Yeast Anticancer Drug Screen. Data for the mec2-1 strain (AID 157)
Conditions: S. cerevisiae mec2-1 strain, at 50.0 µM, active compounds read high
This is part of a sample that, as a whole, favours compounds with a hit. Of some 79,000 tested, about 15% had one in any assay.
measurement.type: growth inhibition (%)
Give the number; % is assumed, so skip it.

Task item: Tell me the measured growth inhibition of O=C(O)O.O=C(O)O.O=C(O)O.[Co] , please.
Reply: 38.3

Task item: Please do the same for COc1ccc(-c2cc3c(c4cc(OC)ccc24)C(=O)OC3=O)cc1 as well.
Reply: -5.1

Task item: Please do the same for Nc1ccccc1C(F)(F)F as well.
Reply: 5.65

Task item: Please do the same for Cc1ccc(C)c(OC(=O)Nc2ccccc2)c1 as well.
Reply: 4.8

Task item: Please do the same for O=c1[nH]c(Nc2cccc(CO)c2)nc2nc[nH]c12 as well.
Reply: -11

Task item: Please do the same for CC(=O)OCSc1ncnc2c1ncn2CN1CCOCC1 as well.
Reply: 2.25

Task item: Please do the same for CCOC(=O)NNC(=O)NC12CC3CC(CC(C3)C1)C2 as well.
Reply: -7.7

Task item: Please do the same for Nc1nc2sc3ccccc3c(=O)n2n1 as well.
Reply: -31.9

Task item: Please do the same for NC(CC1C(=O)Nc2ccccc21)C(=O)O (stereo not given) as well.
Reply: -14.9

Task item: Please do the same for Oc1c(Br)cc(Br)cc1/C=N/c1nc(-c2ccccc2)cs1 as well.
Reply: 92.1

Task item: Please do the same for O=C(Nc1ccc(Cl)cc1[N+](=O)[O-])N1CCN(c2ccccc2)CC1 as well.
Reply: 21.9

Task item: Please do the same for Cc1ccc2cccc(OCC(=O)O)c2n1 as well.
Reply: 13.4

Task item: Please do the same for C/C(=N\NC(N)=S)c1sc(-n2nc(-c3ccccc3)cc2-c2ccccc2)nc1C as well.
Reply: -18.2

Task item: Please do the same for CC(C)(C)C(=O)OCCN(CCOC(=O)C(C)(C)C)C(=O)COC(=O)C(C)(C)C as well.
Reply: -0.95

Task item: Please do the same for CCCCCCCC/C=C\CCCCCCCC(=O)O as well.
Reply: -23.1

Task item: Please do the same for CNc1ccc(C)cc1S(=O)(=O)c1ccccc1[N+](=O)[O-] as well.
Reply: 42.5

Task item: Please do the same for O=S(=O)(O)c1cc(S(=O)(=O)O)c2c(Nc3ccnc4ccccc34)ccc(S(=O)(=O)O)c2c1 as well.
Reply: -1.3

Task item: Please do the same for CCCCCCC(C(=O)O)C(=O)O as well.
Reply: -15.4

Task item: Please do the same for Cc1ccc(C(=O)c2ccccc2)cc1C[N+](C)(C)C as well.
Reply: 3.35

Task item: Please do the same for CC(C)NCC(=O)CCCBr as well.
Reply: 0.85

Task item: Please do the same for O=C(O)c1cccnc1C(=O)Nc1cccc2ccccc12 as well.
Reply: 13.4

Task item: Please do the same for CCOC(=O)C(Cc1cc(N)c(O)c(N)c1)NC(C)=O (stereo not given) as well.
Reply: -4.95

Task item: Please do the same for C/C=C/Cc1ccccc1O as well.
Reply: -3.4

Task item: Please do the same for Cc1no[n+]([O-])c1NC(=O)OCc1ccccc1 as well.
Reply: -11

Task item: Please do the same for CNC(=O)n1cnc(N)n1 (tested in a mixture with another compound) as well.
Reply: 8.2
